Target: KDR (phospho-KDR, VEGF165-stimulated HUVEC cells) (Homo sapiens (Human))
Sequence (P35968 20-1356): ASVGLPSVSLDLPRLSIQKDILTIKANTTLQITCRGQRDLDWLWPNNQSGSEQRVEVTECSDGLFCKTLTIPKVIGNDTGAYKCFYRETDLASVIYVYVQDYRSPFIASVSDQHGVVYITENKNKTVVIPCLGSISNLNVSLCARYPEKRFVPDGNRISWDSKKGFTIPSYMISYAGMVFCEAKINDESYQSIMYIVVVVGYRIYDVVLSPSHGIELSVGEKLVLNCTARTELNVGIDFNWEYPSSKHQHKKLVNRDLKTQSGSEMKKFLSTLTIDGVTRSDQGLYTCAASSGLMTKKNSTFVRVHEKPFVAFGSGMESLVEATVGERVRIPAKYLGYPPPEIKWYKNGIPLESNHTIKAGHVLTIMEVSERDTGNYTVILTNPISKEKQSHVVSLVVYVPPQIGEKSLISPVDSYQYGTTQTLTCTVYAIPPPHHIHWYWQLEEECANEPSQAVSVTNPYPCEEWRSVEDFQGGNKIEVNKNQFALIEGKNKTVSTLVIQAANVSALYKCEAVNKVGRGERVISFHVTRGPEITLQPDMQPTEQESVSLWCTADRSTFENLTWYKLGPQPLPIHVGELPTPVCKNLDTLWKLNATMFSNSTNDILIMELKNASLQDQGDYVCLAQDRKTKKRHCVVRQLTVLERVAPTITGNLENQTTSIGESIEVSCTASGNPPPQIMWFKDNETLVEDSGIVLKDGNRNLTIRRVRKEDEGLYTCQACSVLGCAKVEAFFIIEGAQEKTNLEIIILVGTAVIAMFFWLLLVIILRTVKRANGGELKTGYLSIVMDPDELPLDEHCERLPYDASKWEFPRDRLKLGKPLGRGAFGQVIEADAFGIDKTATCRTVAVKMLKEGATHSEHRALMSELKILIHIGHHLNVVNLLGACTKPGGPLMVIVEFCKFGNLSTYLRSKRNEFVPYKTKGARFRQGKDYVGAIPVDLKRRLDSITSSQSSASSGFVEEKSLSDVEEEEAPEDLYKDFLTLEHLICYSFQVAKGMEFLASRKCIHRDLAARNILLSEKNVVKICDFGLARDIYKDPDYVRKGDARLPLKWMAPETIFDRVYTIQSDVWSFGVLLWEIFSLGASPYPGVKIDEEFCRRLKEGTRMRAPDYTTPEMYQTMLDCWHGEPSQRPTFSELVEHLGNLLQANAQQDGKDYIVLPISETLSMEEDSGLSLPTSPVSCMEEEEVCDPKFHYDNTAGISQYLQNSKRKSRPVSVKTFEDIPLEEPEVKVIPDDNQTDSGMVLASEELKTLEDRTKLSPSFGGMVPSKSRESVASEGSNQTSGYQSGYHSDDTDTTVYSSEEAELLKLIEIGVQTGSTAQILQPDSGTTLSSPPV
Assay: KDR autophosphorylation ELISA in HUVEC cells (Example G)
Format: cell-based
Details: cellular activity; KDR autophosphorylation ELISA in HUVEC cells
Experimental: Human umbilical vein endothelial cells or HUVEC (Lonza #C2519A) were seeded at 2×10^4 cells/well onto 96-well plates (Corning #3904), in EGM-2 growth medium (Lonza #CC-3162) containing 1% Penicillin Streptomycin (Thermo Fisher #15140-122). […] IC50 values were calculated by nonlinear regression analysis using a 4-parameter logistic curve fit in ActivityBase XE (IDBS).
pIC50: −log10 of the molar value.
This section presents molecules with their documented pIC50 values.

# smiles.str, pIC50
records = [
    ("COc1cc2nccc(Oc3ccc(NC(=O)c4cn(C5CCC5)cc(-c5ccc(F)cc5)c4=O)cc3F)c2nc1OC", "6.52 to 7.00"),
    ("CCOc1c(-c2ccc(F)cc2)cnc(C)c1C(=O)Nc1ccc(Oc2ccnc3cc(OC)c(OC)nc23)c(F)c1", "6.52 to 7.00"),
    ("COc1ccc2nccc(Oc3ccc(NC(=O)c4ncc(C)n(-c5ccc(F)cc5C)c4=O)cc3F)c2n1", "< 6.52"),
    ("CCc1nc(C)c(-c2ccc(F)cc2)c(O)c1C(=O)Nc1ccc(Oc2ccnc3cc(OC)c(OC)nc23)cc1", "> 7.00"),
    ("Cc1nc(C)c(-c2ccc(F)cc2)c(O)c1C(=O)Nc1ccc(Oc2ccnc3cc(O)cnc23)c(F)c1", "> 7.00"),
]

State the recorded pIC50 for this entry: COc1cc2nccc(Oc3ccc(NC(=O)c4c(C)c(F)cn(-c5ccc(F)cc5)c4=O)cc3)c2nc1OC
6.52 to 7.00

# repeat for COc1cnc2c(Oc3ccc(NC(=O)c4cn(C(C)C)c(C)c(-c5ccc(F)cc5)c4=O)cc3)ccnc2c1
< 6.52

###

This section presents molecules with their documented IC50 values.
Target: Human MET (residues 956-1390) (Homo sapiens (Human), UniProt P08581)
Experiment: Human Met kinase assay, HTRF KinEase (Example D-2)
Type: biochemical
Conditions: protocol of Example D-2; read-out: c-Met IC50

# example entries with known answers
# molecule, IC50
rows = [
    ("COc1cnc2c(Oc3ccc(NC(=O)c4cn(C)c(OC)c(-c5ccc(F)cc5)c4=O)cc3F)ccnc2c1", "< 100 nM"),
    ("COc1ccc2nccc(Oc3ccc(NC(=O)c4c(C)n(C)cc(-c5ccc(F)cc5C)c4=O)cc3F)c2n1", "> 300 nM"),
    ("Cc1nc(C)c(-c2ccc(F)cc2)c(O)c1C(=O)Nc1ccc(Oc2ccnc3cc(C(C)C)cnc23)cc1", "< 100 nM"),
]

State the recorded IC50 for this entry: C=C(C)c1cc2nccc(Oc3ccc(NC(=O)c4cnc(C)c(-c5ccc(F)cc5C)c4O)cc3F)c2nc1OC
> 300 nM

###

Molecular target: Met (phospho-Met, HGF-stimulated PC-3 prostate cancer cells) (Homo sapiens (Human))
Sequence (P08581 25-1390): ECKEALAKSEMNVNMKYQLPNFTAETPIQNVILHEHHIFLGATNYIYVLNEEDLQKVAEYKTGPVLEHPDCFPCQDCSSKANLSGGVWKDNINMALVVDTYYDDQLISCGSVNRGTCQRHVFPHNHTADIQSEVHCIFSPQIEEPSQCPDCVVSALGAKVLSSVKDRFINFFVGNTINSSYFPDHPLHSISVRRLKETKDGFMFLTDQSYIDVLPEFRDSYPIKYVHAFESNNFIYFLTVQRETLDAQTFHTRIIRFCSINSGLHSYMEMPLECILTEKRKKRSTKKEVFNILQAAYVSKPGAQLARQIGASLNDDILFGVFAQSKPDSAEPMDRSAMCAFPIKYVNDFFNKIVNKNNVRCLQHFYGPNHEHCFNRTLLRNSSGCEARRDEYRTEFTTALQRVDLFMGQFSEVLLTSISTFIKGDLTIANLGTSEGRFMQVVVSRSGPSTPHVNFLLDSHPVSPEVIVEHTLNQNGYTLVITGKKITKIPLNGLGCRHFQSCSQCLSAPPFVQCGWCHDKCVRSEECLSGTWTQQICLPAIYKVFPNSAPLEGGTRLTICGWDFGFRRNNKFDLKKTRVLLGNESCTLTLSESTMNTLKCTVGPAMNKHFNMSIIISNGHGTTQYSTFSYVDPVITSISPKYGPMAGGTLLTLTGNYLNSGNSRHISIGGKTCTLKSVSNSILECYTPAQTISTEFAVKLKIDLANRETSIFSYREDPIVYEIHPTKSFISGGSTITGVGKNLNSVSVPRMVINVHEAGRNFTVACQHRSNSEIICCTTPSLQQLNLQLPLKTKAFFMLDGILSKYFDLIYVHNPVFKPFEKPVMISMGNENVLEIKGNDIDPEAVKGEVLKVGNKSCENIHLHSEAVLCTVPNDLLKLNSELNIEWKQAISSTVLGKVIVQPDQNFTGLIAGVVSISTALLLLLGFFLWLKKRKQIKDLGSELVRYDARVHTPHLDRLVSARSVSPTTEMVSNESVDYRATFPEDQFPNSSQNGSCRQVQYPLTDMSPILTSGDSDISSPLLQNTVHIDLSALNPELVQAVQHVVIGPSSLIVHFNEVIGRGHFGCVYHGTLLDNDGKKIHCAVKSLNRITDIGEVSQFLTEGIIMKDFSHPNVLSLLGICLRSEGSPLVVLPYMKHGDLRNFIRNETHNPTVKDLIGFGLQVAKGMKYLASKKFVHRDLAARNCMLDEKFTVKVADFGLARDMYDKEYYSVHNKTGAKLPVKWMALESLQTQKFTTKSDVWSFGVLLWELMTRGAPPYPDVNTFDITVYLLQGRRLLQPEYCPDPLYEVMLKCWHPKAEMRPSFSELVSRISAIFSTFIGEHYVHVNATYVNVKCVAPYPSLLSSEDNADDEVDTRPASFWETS
Experiment: Met autophosphorylation ELISA in PC-3 cells (Example F)
Format: cell-based
Conditions: cellular activity; Met autophosphorylation ELISA in PC-3 cells; read-out: c-Met IC50
This section presents compounds with their documented IC50 values.

# compound, IC50
records = [
    ("COc1ccc2nccc(Oc3ccc(NC(=O)c4cnc(C)c(-c5ccc(F)cc5)c4O)cc3)c2n1", "< 100 nM"),
    ("COc1ccc2nccc(Oc3ccc(NC(=O)c4c(C)nc(C)n(-c5ccc(F)cc5)c4=O)cc3F)c2n1", "100 to 300 nM"),
    ("COc1cc2nccc(Oc3ccc(NC(=O)c4cn(C(C)(C)CO)cc(-c5ccc(F)cc5)c4=O)cc3F)c2nc1OC", "< 100 nM"),
    ("COc1cc2nccc(Oc3ccc(NC(=O)c4nn(C(C)C)c(C)c(-c5ccc(F)cc5)c4=O)cc3F)c2nc1OC", "< 100 nM"),
    ("COc1cnc2c(Oc3ccc(NC(=O)c4c(C)ccn(-c5ccc(F)cc5)c4=O)cc3)ccnc2c1", "< 100 nM"),
]

State the recorded IC50 for this entry: COc1cc2nccc(Oc3ccc(NC(=O)c4c(C)ncc(-c5ccc(F)c(C)c5)c4O)cc3F)c2nc1OC
< 100 nM

# repeat for COc1cnc2c(Oc3ccc(NC(=O)c4c(C)c(C)nn(-c5ccc(F)cc5)c4=O)cc3F)ccnc2c1
< 100 nM

# repeat for COc1cnc2c(Oc3ccc(NC(=O)c4ncc(C)n(-c5ccc(F)cc5)c4=O)cc3)ccnc2c1
< 100 nM

# repeat for COc1cnc2c(Oc3ccc(NC(=O)c4c(C)ccn(-c5ccc(F)cc5)c4=O)cc3F)ccnc2c1
< 100 nM

# repeat for COc1cc2nccc(Oc3ccc(NC(=O)c4cn5c(c(-c6ccc(F)cc6)c4=O)COCC5)cc3F)c2nc1OC
< 100 nM

# repeat for CCc1nc(C)c(-c2ccc(F)cc2)c(O)c1C(=O)Nc1ccc(Oc2ccnc3cc(OC)c(OC)nc23)cc1
< 100 nM

# repeat for C=C(C)c1cnc2c(Oc3ccc(NC(=O)c4cnc(C)n(-c5ccc(F)cc5)c4=O)cc3F)ccnc2c1
< 100 nM

# repeat for COc1cnc2c(Oc3ccc(NC(=O)c4ncc(C)n(-c5ccc(F)cc5)c4=O)cc3F)ccnc2c1
< 100 nM

# repeat for CCc1nc(C)c(-c2ccc(F)cc2C)c(O)c1C(=O)Nc1ccc(Oc2ccnc3cc(OC)c(OC)nc23)c(F)c1
< 100 nM

# repeat for COCCOc1nc2c(Oc3ccc(NC(=O)c4ccc(C)n(-c5ccc(F)cc5)c4=O)cc3F)ncnc2cc1OC
< 100 nM

# repeat for COc1ccc2nccc(Oc3ccc(NC(=O)c4ccc(C)n(-c5ccc(F)cc5C)c4=O)cc3F)c2n1
< 100 nM

# repeat for O=C(Nc1ccc(Oc2ccnc3cccnc23)c(F)c1)c1cccn(-c2ccc(F)cc2)c1=O
< 100 nM

# repeat for COc1cnc2c(Oc3ccc(NC(=O)c4c(C)nc(C)c(-c5ccc(S(C)(=O)=O)cc5)c4O)cc3F)ccnc2c1
100 to 300 nM

# repeat for COc1cnc2c(Oc3ccc(NC(=O)c4cn(C(F)F)c(C)c(-c5ccc(F)cc5)c4=O)cc3)ccnc2c1
< 100 nM

# repeat for COc1ccc2nccc(Oc3ccc(NC(=O)c4c(C)nc(C)c(-c5ccc(F)cc5)c4O)cc3F)c2c1
< 100 nM

# repeat for Cc1ncc(C(=O)Nc2ccc(Oc3ccnc4cnccc34)c(F)c2)c(O)c1-c1ccc(F)cc1
< 100 nM

# repeat for COc1cc2nccc(Oc3ccc(NC(=O)c4n[nH]c(C)c(-c5ccc(F)cc5C)c4=O)cc3)c2nc1OC
< 100 nM

meta.source: patent US12371428B2
